B1: PHTF1 (parent)
chain: SRHLNSQVKKTTTRWCHIVRDSDS

- Variants of: B1
- Experimental protocol: protein stability index of a GFP-peptide fusion (GPS, HEK-293T) (PSI 1-6); higher = more stable;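 further: lentivirally expressed fusions sorted by FACS into six bins by GFP to DsRed ratio, PSI derived from sequencing read proportions per bin multiplied by bin number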
- Cond: c terminus: a fixed tail appended
Property measured: protein stability index

{"Mutation notation": "T13M", "protein stability index": 2.1}

Would you kindly share the measured protein stability index for `V19C` ? 2.19
